Target Desc: T1, APBA1_2, Q02410
T1 sequence (Q02410 742-832, limits assumed, looked up): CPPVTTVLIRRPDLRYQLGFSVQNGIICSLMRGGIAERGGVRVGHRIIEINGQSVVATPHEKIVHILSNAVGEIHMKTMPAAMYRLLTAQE
Assay Procedure: holdup assay
Parameters: key: below the threshold = too weak to quantify, mostly under pKd 3.1 to 4
Experimental Parameters: plain residues with an end cap or a label only (N-terminal biotin on a linker: ado-ado)
Property Name: pKd

>  <Binder>
TSQESEDTYL [TBC1D10A, Q9BXI6]

>  <Readout Value>
below the threshold

$$$$
>  <Binder>
VYPNAKVELV [PDLIM4_iso2, P50479;P50479-1]

>  <Readout Value>
3.91

$$$$
>  <Binder>
RHGSCVETSL [TMEM151B, Q8IW70]

>  <Readout Value>
3.97

$$$$
>  <Binder>
ETQVTAETVI [TMEM225B, P0DP42]

>  <Readout Value>
below the threshold

$$$$
>  <Binder>
KKAPTNEFYA [SDC4, P31431]

>  <Readout Value>
below the threshold

$$$$
>  <Binder>
VRNLPESEEL [MYOZ3, Q8TDC0]

>  <Readout Value>
below the threshold

$$$$
>  <Binder>
PKRSFIESNV [TANC1, Q9C0D5]

>  <Readout Value>
3.68

$$$$
>  <Binder>
PAPSSGKDYV [CLDN1, O95832]

>  <Readout Value>
4.09

$$$$
>  <Binder>
QHKTQLQTLI [BPIFA2, Q96DR5]

>  <Readout Value>
below the threshold

$$$$
>  <Binder>
YRLAQESGLV [ABCC6, O95255]

>  <Readout Value>
below the threshold

$$$$
>  <Binder>
VKPQVSESKL [ACOT8, O14734]

>  <Readout Value>
below the threshold

$$$$
>  <Binder>
RRLPGKETMA [GRIK2, Q13002]

>  <Readout Value>
below the threshold

$$$$
>  <Binder>
DDEDRLVIEI [ZNF831, Q5JPB2]

>  <Readout Value>
below the threshold

$$$$
>  <Binder>
SKENVQETQI [LRRC4B, Q9NT99]

>  <Readout Value>
below the threshold

$$$$
>  <Binder>
PRAEAEDSFL [PDGFRB, P09619]

>  <Readout Value>
3.65

$$$$
>  <Binder>
SGSLKLMTTV [DACT1, Q9NYF0]

>  <Readout Value>
3.5

$$$$
